# Measured target: Mycobacterium thermoresistible (Mtr) LpqY (Mycolicibacterium thermoresistibile)
# Format: binding
# Condition: single dose MST screen against LpqY
Observed property: Pathogen Box screen signal/noise ratio
In your answer, state the number alone without any accompanying words.

[
  {
    "Compound": "O=C(c1ccc(NCCO)cc1)C1C[C@H]1c1ccc(Cl)cc1 (stereo partly shown) [MMV676877]",
    "Measured target": "Mycobacterium thermoresistible (Mtr) LpqY (Mycolicibacterium thermoresistibile)",
    "Pathogen Box screen signal/noise ratio": 0.0
  },
  {
    "Compound": "COc1ccc(C2=NN(C3CCCCCC3)C(=O)[C@@H]3CC=CC[C@H]23)cc1OCCCCOc1ccc(-c2nn[nH]n2)cc1 [MMV690027]",
    "Measured target": "Mycobacterium thermoresistible (Mtr) LpqY (Mycolicibacterium thermoresistibile)",
    "Pathogen Box screen signal/noise ratio": 0.9
  },
  {
    "Compound": "N#Cc1ccc(-c2ccc(OCC(N)=O)cc2)cc1 [MMV053220]",
    "Measured target": "Mycobacterium thermoresistible (Mtr) LpqY (Mycolicibacterium thermoresistibile)",
    "Pathogen Box screen signal/noise ratio": 0.639
  }
]

Proceed to the following item.
What value of Pathogen Box screen signal/noise ratio on Mycobacterium thermoresistible (Mtr) LpqY (Mycolicibacterium thermoresistibile) does N=C(N)Nc1ccc(-c2ccc(-c3ccc(N=C(N)N)c(Cl)c3)o2)cc1Cl [MMV688271] have?
2.0

###

# Measured target: Mycobacterium thermoresistible (Mtr) LpqY (Mycolicibacterium thermoresistibile, UniProt G7CES0)
# Sequence (G7CES0 29-471): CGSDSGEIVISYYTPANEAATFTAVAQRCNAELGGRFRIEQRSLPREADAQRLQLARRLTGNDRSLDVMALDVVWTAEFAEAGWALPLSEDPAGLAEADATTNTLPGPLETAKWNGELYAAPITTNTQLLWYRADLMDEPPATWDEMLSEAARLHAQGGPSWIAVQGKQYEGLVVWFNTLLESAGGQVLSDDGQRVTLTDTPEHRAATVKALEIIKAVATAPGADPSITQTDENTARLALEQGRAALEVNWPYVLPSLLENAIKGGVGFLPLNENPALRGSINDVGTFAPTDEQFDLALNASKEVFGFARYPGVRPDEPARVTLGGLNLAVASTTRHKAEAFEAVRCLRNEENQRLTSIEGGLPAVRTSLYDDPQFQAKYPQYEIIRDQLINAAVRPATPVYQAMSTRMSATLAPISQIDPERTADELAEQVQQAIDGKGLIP
# Type: binding
# Condition: single dose MST screen against LpqY
Listed here: items and their measured Pathogen Box screen signal/noise ratio.
In your answer, state the number alone without any accompanying words.

Worked cases, answers included:
[
  {
    "Molecule": "COc1ccc(-c2nc(-c3cccc(NC(=O)Cc4ccc(F)cc4)c3)no2)cc1OC [MMV676571]",
    "Pathogen Box screen signal/noise ratio": 3.5
  },
  {
    "Molecule": "Cc1cc(NCCc2ccccc2)nc(NC(=N)Nc2ccc(Cl)cc2)n1 [MMV021660]",
    "Pathogen Box screen signal/noise ratio": 1.6
  },
  {
    "Molecule": "Cc1nnc(NC(=O)c2cn(-c3ccccc3)nc2-c2ccccc2C)o1 [MMV020320]",
    "Pathogen Box screen signal/noise ratio": 0.6
  },
  {
    "Molecule": "O=C1[C@@H](Oc2ccccc2)[C@@H](c2ccc(Cl)cc2)N1CCn1cnc2c(NCc3ccccc3)ncnc21 [MMV688352]",
    "Pathogen Box screen signal/noise ratio": 0.212
  },
  {
    "Molecule": "Cc1nn(C)c(C)c1NS(=O)(=O)c1c(Cl)cc(-c2ccnc(N3CCNCC3)c2)cc1Cl [MMV688180]",
    "Pathogen Box screen signal/noise ratio": 0.15
  }
]

Quick check: Pathogen Box screen signal/noise ratio of Cc1nnc(NCc2cccc(Cl)c2)c2ccccc12 [MMV676555] ?
0.9

###

# Measured target: Mycobacterium thermoresistible (Mtr) LpqY (Mycolicibacterium thermoresistibile, UniProt G7CES0)
# Assay type: binding
# Condition: single dose MST screen against LpqY
Listed here: items and their measured Pathogen Box screen signal/noise ratio.
In your answer, state the number alone without any accompanying words.

[
  {
    "Molecule": "c1coc(CNc2nc(N3CCCCC3)nc3ccccc23)c1",
    "Reading": 1.9
  },
  {
    "Molecule": "c1ccc(-c2cc(N3CCCCC3)c3ccccc3n2)nc1",
    "Reading": 0.7
  },
  {
    "Molecule": "CC1CC1C(=O)NC1CCN(CC2(c3ccccc3)CCCCC2)CC1 (centres unmarked)",
    "Reading": 1.1
  },
  {
    "Molecule": "COc1ccc(C2CC(c3cccs3)=NN2C(=O)c2ccco2)cc1OC (centres unmarked)",
    "Reading": 2.1
  },
  {
    "Molecule": "FC(F)(F)c1cccc(-c2nc3c(NCc4ccncc4)nccc3[nH]2)c1",
    "Reading": 3.3
  },
  {
    "Molecule": "CNc1snc(C)c1C(=O)NCCOc1ccc(OC)cc1",
    "Reading": 0.8
  },
  {
    "Molecule": "O=C(Nc1cnc2ccccc2c1)c1cccc(-n2cnnn2)c1",
    "Reading": 1.5
  },
  {
    "Molecule": "c1csc(-c2cnc3sc(NCC4CCOCC4)nn23)c1",
    "Reading": 0.667
  }
]

Quick check: Pathogen Box screen signal/noise ratio of CC(=O)NC[C@@H]1CN(c2ccc(N3CCOCC3)c(F)c2)C(=O)O1 ?
2.0

###

Listed here: items and their measured Pathogen Box screen signal/noise ratio.
# Measured target: Mycobacterium thermoresistible (Mtr) LpqY (Mycolicibacterium thermoresistibile)
# Type: binding
# Condition: single dose MST screen against LpqY

[
  {
    "Compound": "COc1cccc(-c2nc3c(N4CCCC4)cccc3n2CC2CCCN2)n1 (stereo not drawn)",
    "Pathogen Box screen signal/noise ratio": 1.3
  }
]

What value of Pathogen Box screen signal/noise ratio on Mycobacterium thermoresistible (Mtr) LpqY (Mycolicibacterium thermoresistibile) does COc1ccc(-c2cc(NC(=O)c3ccc(F)cc3Cl)ccc2OC)cc1 have?
0.556

###

# Measured target: Mycobacterium thermoresistible (Mtr) LpqY (Mycolicibacterium thermoresistibile)
# Assay type: binding
# Condition: MST re-evaluation of hits against LpqY
Listed here: items and their measured Hit validation Binding score.
In your answer, state the number alone without any accompanying words.

[
  {
    "Molecule": "COc1cc(NC(C)CCCN)c2ncccc2c1 (centres unmarked) [MMV000023, Primaquine, reference compound]",
    "Measured target": "Mycobacterium thermoresistible (Mtr) LpqY (Mycolicibacterium thermoresistibile)",
    "Reading": 21.6
  },
  {
    "Molecule": "CCOC(=O)NC(=O)c1ccsc1NC(=O)c1nc2ccccc2s1 [MMV090930, TCA1, reference compound]",
    "Measured target": "Mycobacterium thermoresistible (Mtr) LpqY (Mycolicibacterium thermoresistibile)",
    "Reading": 91.5
  },
  {
    "Molecule": "COc1ccccc1OCCCCn1c(C2CC2)nc2ccccc21 [MMV676474]",
    "Measured target": "Mycobacterium thermoresistible (Mtr) LpqY (Mycolicibacterium thermoresistibile)",
    "Reading": 6.2
  }
]

Quick check: Hit validation Binding score of COc1ccc(N(CCc2cccc(C)n2)C(=O)C2CCCCC2)cc1 [MMV675996] ?
4.9

Quick check: Hit validation Binding score of CC1(C)OB(O)c2ccc(C3=NOC(c4cc(Cl)c(F)c(Cl)c4)(C(F)(F)F)C3)cc21 (centres unmarked) [MMV687775] ?
3.9

Quick check: Hit validation Binding score of CC(=O)Oc1ccccc1C(=O)Nc1ncc([N+](=O)[O-])s1 [MMV688991, Nitazoxanide, reference compound] ?
20.0

Quick check: Hit validation Binding score of CS(=O)(=O)c1ccccc1C(=O)N(Cc1ccccc1)c1ccccc1 [MMV688798] ?
1.3

Quick check: Hit validation Binding score of O=C(Nc1cccc(Cl)c1)c1cnc(N2CCN(c3ccncc3)CC2)c(Cl)c1 [MMV024406] ?
2.3

###

# Measured target: Mycobacterium thermoresistible (Mtr) LpqY (Mycolicibacterium thermoresistibile)
# Type: binding
# Condition: single dose MST screen against LpqY
Observed property: Pathogen Box screen signal/noise ratio
In your answer, state the number alone without any accompanying words.

[
  {
    "Molecule": "COC(=O)c1c(NC(=O)c2cc3ccccc3oc2=O)sc2c1CCN(Cc1ccccc1)C2",
    "Measured target": "Mycobacterium thermoresistible (Mtr) LpqY (Mycolicibacterium thermoresistibile)",
    "Pathogen Box screen signal/noise ratio": 1.3
  },
  {
    "Molecule": "CC(C)(C)C(O)C(Oc1ccc(-c2ccccc2)cc1)n1cncn1 (centres unmarked)",
    "Measured target": "Mycobacterium thermoresistible (Mtr) LpqY (Mycolicibacterium thermoresistibile)",
    "Pathogen Box screen signal/noise ratio": 0.451
  },
  {
    "Molecule": "NCC(=O)N1CCn2c(nc(-c3ccccc3)c2Nc2ccc3c(c2)OCO3)C1",
    "Measured target": "Mycobacterium thermoresistible (Mtr) LpqY (Mycolicibacterium thermoresistibile)",
    "Pathogen Box screen signal/noise ratio": 1.3
  },
  {
    "Molecule": "CC(C)C(C(=O)Nc1ccc(S(=O)(=O)N(C)C)cc1)c1ccc(Cl)cc1 (centres unmarked)",
    "Measured target": "Mycobacterium thermoresistible (Mtr) LpqY (Mycolicibacterium thermoresistibile)",
    "Pathogen Box screen signal/noise ratio": 0.25
  }
]

Proceed to the following item.
Quick check: Pathogen Box screen signal/noise ratio of Brc1c(-c2ccc3c(c2)OCO3)nc2ncccn12 ?
2.9

###

# Measured target: Mycobacterium thermoresistible (Mtr) LpqY (Mycolicibacterium thermoresistibile)
# Assay type: binding
# Condition: single dose MST screen against LpqY
Listed here: items and their measured Pathogen Box screen signal/noise ratio.

[
  {
    "Compound": "Cc1ccc2[nH]c3c(NCCN(C)C)ncnc3c2c1 [MMV006372]",
    "Pathogen Box screen signal/noise ratio": 0.333
  },
  {
    "Compound": "COc1cc(CN2CCC3(C=Cc4ccccc43)CC2)cc2c1OCO2 [MMV688941]",
    "Pathogen Box screen signal/noise ratio": 0.5
  },
  {
    "Compound": "CC1COC2(CCN(c3nc(=O)c4cc(C(F)(F)F)cc([N+](=O)[O-])c4s3)CC2)O1 (stereo not drawn) [MMV676603]",
    "Pathogen Box screen signal/noise ratio": 1.8
  },
  {
    "Compound": "COc1ccc(-c2cnc3ccc(N4CCCC4)nn23)cc1OC [MMV023985]",
    "Pathogen Box screen signal/noise ratio": 2.0
  },
  {
    "Compound": "Cc1cc(Nc2ccncc2)n2nc(C)c(-c3ccccc3Cl)c2n1 [MMV016136]",
    "Pathogen Box screen signal/noise ratio": 1.7
  }
]

Quick check: Pathogen Box screen signal/noise ratio of c1ccc(Oc2ccc(-c3cc(N4CCNCC4)[nH]n3)cc2)cc1 [MMV687706] ?
-0.0238

Quick check: Pathogen Box screen signal/noise ratio of FC(F)(F)c1nnc2ccc(Cl)nn12 [MMV069458] ?
2.4

Quick check: Pathogen Box screen signal/noise ratio of Nc1nc2ccc(-c3cncc(Oc4ccc(F)cc4)c3)cc2[nH]1 [MMV687248] ?
0.2

Quick check: Pathogen Box screen signal/noise ratio of COc1ccc(Cl)cc1NC(=O)CN(C)C(=O)c1cnn(-c2ccccc2)n1 [MMV020710] ?
1.8

Reference source: paper PMC9579956
